In this section we review reported MIC values for a set of compounds.
# Test system: Candida parapsilosis
# procedureDetails: Antifungal activity against Candida parapsilosis ATCC 90018 assessed as reduction in fungal cell growth incubated for 24 hrs by MTT based broth double dilution method
# Format: functional
# condition: Lodderomyces parapsilosis, ATCC 90018, 24 h

>  <compound>
CCN(CC)c1ccc2cc(C(=O)NCC(O)(Cn3ccnc3)c3ccc(Cl)cc3Cl)c(=O)oc2c1 (racemic)

>  <testTarget>
Candida parapsilosis

>  <unitsLabel>
µg/mL

>  <MIC>
0.015

$$$$
>  <compound>
Clc1ccc(COC(Cn2ccnc2)c2ccc(Cl)cc2Cl)c(Cl)c1 (stereo not drawn) [MICONAZOLE]

>  <testTarget>
Candida parapsilosis

>  <unitsLabel>
µg/mL

>  <MIC>
0.06

$$$$
>  <compound>
O=C(NCC(O)(Cn1cncn1)c1ccc(F)cc1F)c1cc2ccc(Cl)cc2[nH]c1=O (racemic)

>  <testTarget>
Candida parapsilosis

>  <unitsLabel>
µg/mL

>  <MIC>
1

$$$$
>  <compound>
CCN(CC)c1ccc2cc(C(=O)NCC(O)(Cn3ccnc3)c3ccc(F)cc3F)c(=O)oc2c1 (racemic)

>  <testTarget>
Candida parapsilosis

>  <unitsLabel>
µg/mL

>  <MIC>
0.015

$$$$
>  <compound>
CC(=O)N1CCN(c2ccc(OCC3COC(Cn4ccnc4)(c4ccc(Cl)cc4Cl)O3)cc2)CC1 (racemic) [KETOCONAZOLE]

>  <testTarget>
Candida parapsilosis

>  <unitsLabel>
µg/mL

>  <MIC>
0.007

$$$$
>  <compound>
C[C@@H](c1ncncc1F)[C@](O)(Cn1cncn1)c1ccc(F)cc1F [VORICONAZOLE]

>  <testTarget>
Candida parapsilosis

>  <unitsLabel>
µg/mL

>  <MIC>
0.015

$$$$
>  <compound>
O=C(NCC(O)(Cn1cncn1)c1ccc(F)cc1F)c1cc2ccccc2oc1=O (racemic)

>  <testTarget>
Candida parapsilosis

>  <unitsLabel>
µg/mL

>  <MIC>
0.25

$$$$
>  <compound>
CCC(CC)Oc1ccc2cc(C(=O)NCC(O)(Cn3cncn3)c3ccc(Cl)cc3Cl)c(=O)oc2c1 (racemic)

>  <testTarget>
Candida parapsilosis

>  <unitsLabel>
µg/mL

>  <MIC>
0.25

$$$$
>  <compound>
COc1ccc2cc(C(=O)NCC(O)(Cn3cncn3)c3ccc(F)cc3F)c(=O)[nH]c2c1 (racemic)

>  <testTarget>
Candida parapsilosis

>  <unitsLabel>
µg/mL

>  <MIC>
2

$$$$
>  <compound>
O=C(NCC(O)(Cn1cncn1)c1ccc(F)cc1F)c1cc2ccccc2[nH]c1=O (racemic)

>  <testTarget>
Candida parapsilosis

>  <unitsLabel>
µg/mL

>  <MIC>
2

$$$$
>  <compound>
CCN(CC)c1ccc2cc(C(=O)NCC(O)(Cn3cncn3)c3ccc(F)cc3F)c(=O)oc2c1 (racemic)

>  <testTarget>
Candida parapsilosis

>  <unitsLabel>
µg/mL

>  <MIC>
0.125

$$$$
>  <compound>
CC[C@@H]([C@H](C)O)n1ncn(-c2ccc(N3CCN(c4ccc(OC[C@@H]5CO[C@@](Cn6cncn6)(c6ccc(F)cc6F)C5)cc4)CC3)cc2)c1=O [POSACONAZOLE]

>  <testTarget>
Candida parapsilosis

>  <unitsLabel>
µg/mL

>  <MIC>
0.015

$$$$
>  <compound>
OC(Cn1cncn1)(Cn1cncn1)c1ccc(F)cc1F [FLUCONAZOLE]

>  <testTarget>
Candida parapsilosis

>  <unitsLabel>
µg/mL

>  <MIC>
1

$$$$
